# System: SJSA-1 cells
# method: Cell lysis by peptidomimetic macrocycles (LDH release)
# Type: cell-based
# condition summary: 50 μM, SJSA-1, 1 h
Items are presented alongside their recorded 50 μM % Lysed cells (1 h LDH).
State the answer as a number, implicitly in %.

[[record]]
compound = "CC(=O)N[C@@H](CC(C)C)C(=O)N[C@H](C(=O)N[C@@H](Cc1ccccc1)C(=O)N[C@]1(C)CCCCCCC=CCCC[C@@](C)(C(=O)N[C@@H](C)C(=O)N[C@@H](C)C(=O)NC(C)(C)C(=O)N[C@@H](C)C(N)=O)NC(=O)[C@H](CC(C)C)NC(=O)[C@H](CCC(N)=O)NC(=O)[C@H](C)NC(=O)[C@H](Cc2c[nH]c3ccccc23)NC(=O)[C@H](Cc2ccc(O)cc2)NC(=O)[C@H](C)NC1=O)[C@@H](C)O (single isomer, unassigned) [compound 232]"
assay_readout = "50 μM % Lysed cells (1 h LDH)"
number = 5


Value (50 μM % Lysed cells (1 h LDH), SJSA-1 cells) for record CC[C@H](C)[C@H](NC(=O)[C@H](C)NC(=O)[C@H](C)NC(=O)[C@]1(C)CCCC=CCCCCCC[C@@](C)(NC(=O)[C@H](Cc2ccccc2)NC(=O)[C@@H](NC(=O)[C@H](CC(C)C)NC(C)=O)[C@@H](C)O)C(=O)N[C@@H](CCC(=O)O)C(=O)N[C@@H](Cc2ccc(C(=O)O)cc2)C(=O)N[C@@H](Cc2c[nH]c3cc(Cl)ccc23)C(=O)N[C@@H](C)C(=O)N[C@@H](CCC(N)=O)C(=O)N[C@@H](CC2CCC2)C(=O)N1)C(=O)N[C@H](C)C(N)=O (single isomer, unassigned) [compound 336] = 0

* * *

# Tested on: Caspase 3
# method: Caspase 3 detection assay in SJSA1 cells
# Type: cell-based
# condition summary: 0.3 μM, SJSA1, 48 h, Caspase 3 activation over DMSO-treated cells
Bridge positions count the residues as written; N and C are the ends. Square brackets hold non-standard residues; d marks the D form. Peptide text beside a SMILES is read from it. R8 = C=CCCCCCC[C@@](C)(N)C(=O)O; S5 = C=CCCC[C@](C)(N)C(=O)O
Items are presented alongside their recorded caspase 0.3 μM.
Would you mind answering with just the numeric figure?

[[record]]
compound = "CC(=O)N[C@@H](CC(C)C)C(=O)N[C@H](C(=O)N[C@@H](Cc1ccccc1)C(=O)N[C@]1(C)CCCCCCC=CCCC[C@@](C)(C(=O)N[C@@H](CO)C(=O)N[C@H](C(=O)N[C@@H](CO)C(N)=O)C(C)C)NC(=O)[C@H](CC(C)C)NC(=O)[C@H](CCC(N)=O)NC(=O)[C@H](C)NC(=O)[C@H](Cc2c[nH]c3ccccc23)NC(=O)[C@H](Cc2ccc(O)cc2)NC(=O)[C@H](C)NC1=O)[C@@H](C)O [compound 121] (Ac-LTF[R8]AYWAQL[S5]SVS-NH2; staple 4-11)"
number = 1


Now take the following compound into account.
Quick note, caspase 0.3 μM for CC[C@H](C)[C@H](NC(=O)[C@H](C)NC(=O)[C@H](C)NC(=O)[C@]1(C)CCCC=CCCCCCC[C@@](C)(NC(=O)[C@H](Cc2ccccc2)NC(=O)[C@@H](NC(=O)[C@H](CC(C)C)NC(C)=O)[C@@H](C)O)C(=O)N[C@@H](C)C(=O)N[C@@H](Cc2ccc(O)cc2)C(=O)N[C@@H](Cc2c[nH]c3ccccc23)C(=O)N[C@@H](C)C(=O)N[C@@H](C)C(=O)N[C@@H](CC(C)C)C(=O)N1)C(=O)N[C@H](C)C(N)=O (single isomer, unassigned) landed at 1

* * *

# method: Circular dichroism (CD) analysis of alpha-helicity
# Type: physicochemical
# condition summary: 222 nm, CD buffer with 50% TFE, 0.05 mg/ml, 4° C.
Bridge positions count the residues as written; N and C are the ends. Square brackets hold non-standard residues; d marks the D form. Peptide text beside a SMILES is read from it. R8 = C=CCCCCCC[C@@](C)(N)C(=O)O; S5 = C=CCCC[C@](C)(N)C(=O)O
Items are presented alongside their recorded Molar Ellipticity 50% TFE (222 in 50% TFE).
State the answer as a number, implicitly in deg cm^2 dmol^−1.

Quick note, Molar Ellipticity 50% TFE (222 in 50% TFE) for CC(=O)N[C@@H](CC(C)C)C(=O)N[C@H](C(=O)N[C@@H](Cc1ccccc1)C(=O)N[C@]1(C)CCCCCCC=CCCC[C@@](C)(C(=O)N[C@@H](C)C(=O)N[C@@H](C)C(=O)N[C@@H](C)C(=O)N[C@H](C)C(N)=O)NC(=O)[C@H](CC(C)C)NC(=O)[C@H](CCC(N)=O)NC(=O)[C@H](C)NC(=O)[C@H](Cc2c[nH]c3ccccc23)NC(=O)[C@H](Cc2ccc(O)cc2)NC(=O)[C@H](C)NC1=O)[C@@H](C)O (single isomer, unassigned) landed at −17974

Quick note, Molar Ellipticity 50% TFE (222 in 50% TFE) for CC(=O)N[C@@H](CC(C)C)C(=O)N[C@H](C(=O)N[C@@H](Cc1ccccc1)C(=O)N[C@]1(C)CCCCCCC=CCCC[C@@](C)(C(=O)N[C@@H](Cc2c[nH]cn2)C(=O)N[C@@H](Cc2c[nH]cn2)C(=O)N[C@@H](CC(C)C)C(=O)N[C@H](C)C(N)=O)NC(=O)[C@H](CC(C)C)NC(=O)[C@H](CCC(N)=O)NC(=O)[C@H](C)NC(=O)[C@H](Cc2c[nH]c3ccccc23)NC(=O)[C@H](Cc2ccc(O)cc2)NC(=O)[C@H](C)NC1=O)[C@@H](C)O [compound 43] (Ac-LTF[R8]AYWAQL[S5]HHL[dA]-NH2; staple 4-11) landed at −18247.4

Quick note, Molar Ellipticity 50% TFE (222 in 50% TFE) for CC(=O)N[C@@H](CC(C)C)C(=O)N[C@H](C(=O)N[C@@H](Cc1ccccc1)C(=O)N[C@]1(C)CCCCCCC=CCCC[C@@](C)(C(=O)N[C@@H](CO)C(=O)N[C@@H](C)C(=O)N[C@@H](C)C(N)=O)NC(=O)[C@H](CC(C)C)NC(=O)[C@H](CCC(N)=O)NC(=O)[C@H](C)NC(=O)[C@H](Cc2c[nH]c3ccccc23)NC(=O)[C@H](Cc2ccc(O)cc2)NC(=O)[C@H](C)NC1=O)[C@@H](C)O [compound 11] (Ac-LTF[R8]AYWAQL[S5]SAA-NH2; staple 4-11) landed at −16623.4

* * *

# Tested on: Caspase 3
# method: Caspase 3 detection assay in SJSA1 cells
# Assay type: cell-based
# condition summary: 0.3 μM, SJSA1, 48 h, Caspase 3 activation over DMSO-treated cells
assay readout: caspase 0.3 μM
Would you mind answering with just the numeric figure?

Quick note, caspase 0.3 μM for CC(=O)N[C@@H](C)C(=O)N[C@@H](CC(C)C)C(=O)N[C@H](C(=O)N[C@@H](Cc1ccccc1)C(=O)N[C@]1(C)CCCCCCC=CCCC[C@@](C)(C(=O)N[C@@H](CO)C(=O)N[C@@H](C)C(=O)N[C@@H](C)C(=O)N[C@H](C)C(N)=O)NC(=O)[C@H](CC2CCC2)NC(=O)[C@H](CCC(N)=O)NC(=O)[C@H](C)NC(=O)[C@H](Cc2c[nH]c3ccccc23)NC(=O)[C@H](Cc2ccc(O)cc2)NC(=O)[C@H](CCC(=O)O)NC1=O)[C@@H](C)O (single isomer, unassigned) [compound 355] landed at 1

* * *

# System: Caspase 3
# method: Caspase 3 detection assay in SJSA1 cells
# Type: cell-based
# condition summary: 30 μM, SJSA1, 48 h, Caspase 3 activation over DMSO-treated cells
assay readout: caspase 30 μM
Would you mind answering with just the numeric figure?

Quick note, caspase 30 μM for CC(=O)N[C@@H](C)C(=O)N[C@@H](C)C(=O)N[C@@H](CC(C)C)C(=O)N[C@H](C(=O)N[C@@H](Cc1ccccc1)C(=O)N[C@]1(C)CCCCCCC=CCCC[C@@](C)(C(=O)N[C@@H](CO)C(=O)N[C@@H](C)C(=O)N[C@@H](C)C(=O)N[C@@H](C)C(=O)N[C@H](C)C(N)=O)NC(=O)[C@H](CC2CCC2)NC(=O)[C@H](CCC(N)=O)NC(=O)[C@H](C)NC(=O)[C@H](Cc2c[nH]c3ccccc23)NC(=O)[C@H](Cc2ccc(O)cc2)NC(=O)[C@H](CCC(=O)O)NC1=O)[C@@H](C)O (single isomer, unassigned) [compound 358] landed at 24

* * *

# Test system: Caspase 3
# method: Caspase 3 detection assay in SJSA1 cells
# Format: cell-based
# condition summary: 0.3 μM, SJSA1, 48 h, Caspase 3 activation over DMSO-treated cells
Bridge positions count the residues as written; N and C are the ends. Square brackets hold non-standard residues; d marks the D form. Peptide text beside a SMILES is read from it. Phe(4-COOH) = N[C@@H](Cc1ccc(C(=O)O)cc1)C(=O)O; R8 = C=CCCCCCC[C@@](C)(N)C(=O)O; Cba = N[C@@H](CC1CCC1)C(=O)O; S5 = C=CCCC[C@](C)(N)C(=O)O; Nle = CCCC[C@H](N)C(=O)O
Items are presented alongside their recorded caspase 0.3 μM.
Would you mind answering with just the numeric figure?

Solved entries (count: 6):
[[record]]
compound = "CC(=O)N[C@@H](CC(C)C)C(=O)N[C@H](C(=O)N[C@@H](Cc1ccccc1)C(=O)N[C@]1(C)CCCCCCC=CCCC[C@@](C)(C(=O)N[C@@H](CO)C(=O)N[C@@H](C)C(=O)N[C@@H](C)C(N)=O)NC(=O)[C@H](CC(C)C)NC(=O)[C@H](C)NC(=O)[C@H](C(C)C)NC(=O)[C@H](Cc2c[nH]c3ccccc23)NC(=O)[C@H](Cc2ccc(O)cc2)NC(=O)[C@H](C)NC1=O)[C@@H](C)O [compound 196] (Ac-LTF[R8]AYWVAL[S5]SAA-NH2; staple 4-11)"
assay_readout = "caspase 0.3 μM"
number = 1

[[record]]
compound = "CCCC[C@H](NC(=O)[C@H](C)NC(=O)[C@H](CO)NC(=O)[C@]1(C)CCCC=CCCCCCC[C@@](C)(NC(=O)[C@H](Cc2ccccc2)NC(=O)[C@@H](NC(=O)[C@H](CC(C)C)NC(C)=O)[C@@H](C)O)C(=O)N[C@@H](CCC(=O)O)C(=O)N[C@@H](Cc2ccc(C(=O)O)cc2)C(=O)N[C@@H](Cc2c[nH]c3ccccc23)C(=O)N[C@@H](C)C(=O)N[C@@H](CCC(N)=O)C(=O)N[C@@H](CC2CCC2)C(=O)N1)C(=O)N[C@@H](C)C(N)=O [compound 244] (Ac-LTF[R8]E[Phe(4-COOH)]WAQ[Cba][S5]SA[Nle]A-NH2; staple 4-11)"
assay_readout = "caspase 0.3 μM"
number = 1

[[record]]
compound = "CC(=O)N[C@@H](CC(C)C)C(=O)N[C@H](C(=O)N[C@@H](Cc1ccccc1)C(=O)N[C@]1(C)CCCCCCC=CCCC[C@@](C)(C(=O)N[C@@H](C)C(=O)N[C@@H](C)C(=O)N[C@@H](C)C(=O)N[C@@H](C)C(=O)N[C@@H](C)C(=O)N[C@@H](C)C(=O)N[C@H](C)C(N)=O)NC(=O)[C@H](CC(C)C)NC(=O)[C@H](CCC(N)=O)NC(=O)[C@H](C)NC(=O)[C@H](Cc2c[nH]c3ccccc23)NC(=O)[C@H](Cc2ccc(O)cc2)NC(=O)[C@H](CCC(=O)O)NC1=O)[C@@H](C)O (single isomer, unassigned) [compound 343]"
assay_readout = "caspase 0.3 μM"
number = 1

[[record]]
compound = "CC(=O)N[C@@H](CC(C)C)C(=O)N[C@H](C(=O)N[C@@H](Cc1ccccc1)C(=O)N[C@]1(C)CCCCCCC=CCCC[C@@](C)(C(=O)N[C@@H](CO)C(=O)N[C@@H](C)C(=O)N[C@@H](C)C(N)=O)NC(=O)[C@H](CC2CCC2)NC(=O)[C@H](CCC(N)=O)NC(=O)[C@H](C)NC(=O)[C@H](Cc2c[nH]c3ccccc23)NC(=O)[C@H](Cc2ccc(O)cc2)NC(=O)[C@H](CCC(=O)O)NC1=O)[C@@H](C)O (single isomer, unassigned) [compound 153]"
assay_readout = "caspase 0.3 μM"
number = 2

[[record]]
compound = "CC[C@H](C)[C@H](NC(=O)[C@H](C)NC(=O)[C@H](C)NC(=O)[C@]1(C)CCC/C=C/CCCCCC[C@@](C)(NC(=O)[C@H](Cc2ccccc2)NC(=O)[C@@H](NC(=O)[C@H](CC(C)C)NC(C)=O)[C@@H](C)O)C(=O)N[C@@H](C)C(=O)N[C@@H](Cc2ccc(O)cc2)C(=O)N[C@@H](Cc2c[nH]c3ccccc23)C(=O)N[C@@H](C)C(=O)N[C@@H](CCC(N)=O)C(=O)N[C@@H](CC(C)C)C(=O)N1)C(=O)N[C@H](C)C(N)=O [compound 71]"
assay_readout = "caspase 0.3 μM"
number = 0.95

[[record]]
compound = "CC(=O)N[C@@H](CCC(=O)O)C(=O)N[C@H](C(=O)N[C@@H](Cc1ccccc1)C(=O)N[C@]1(C)CCCCCCC=CCCC[C@@](C)(C(=O)N[C@@H](C)C(=O)N[C@@H](C)C(=O)N[C@@H](C)C(=O)N[C@@H](C)C(=O)N[C@@H](C)C(=O)N[C@H](C)C(N)=O)NC(=O)[C@H](CC(C)C)NC(=O)[C@H](CCC(N)=O)NC(=O)[C@H](C)NC(=O)[C@H](Cc2c[nH]c3ccccc23)NC(=O)[C@H](Cc2ccc(O)cc2)NC(=O)[C@H](CCC(=O)O)NC1=O)[C@@H](C)O (single isomer, unassigned) [compound 341]"
assay_readout = "caspase 0.3 μM"
number = 3


Value (caspase 0.3 μM, Caspase 3) for record CC[C@H](C)[C@H](NC(=O)[C@H](C)NC(=O)[C@H](C)NC(=O)[C@]1(C)CCCC=CCCCCCC[C@@](C)(NC(=O)[C@H](Cc2ccccc2)NC(=O)[C@@H](NC(=O)[C@H](CC(C)C)NC(C)=O)[C@@H](C)O)C(=O)N[C@@H](C)C(=O)N[C@@H](Cc2ccc(O)cc2)C(=O)N[C@@H](Cc2c[nH]c3ccccc23)C(=O)N[C@@H](C)C(=O)N[C@@H](CCC(N)=O)C(=O)N[C@@H](CC(C)C)C(=O)N1)C(=O)N[C@H](CC(C)C)C(N)=O (single isomer, unassigned) [compound 81] = 1

Value (caspase 0.3 μM, Caspase 3) for record CC(=O)N[C@@H](CC(C)C)C(=O)N[C@H](C(=O)N[C@@H](Cc1ccccc1)C(=O)N[C@]1(C)CCCCCCC=CCCC[C@@](C)(C(=O)N[C@@H](CO)C(=O)NC(C)(C)C(=O)N[C@@H](C)C(=O)N[C@@H](C)C(N)=O)NC(=O)[C@H](CC(C)C)NC(=O)[C@H](CCC(N)=O)NC(=O)[C@H](C)NC(=O)[C@H](Cc2c[nH]c3ccccc23)NC(=O)[C@H](Cc2ccc(O)cc2)NC(=O)[C@H](C)NC1=O)[C@@H](C)O (single isomer, unassigned) [compound 26] = 1

Reference source: patent US20200369728A1
